# targetEntity: Macaca fascicularis IL-36R extracellular domain expressed with a C-terminal myc-myc-hexahistidine tag (mfIL-36R-MMH) (Macaca fascicularis)
# method: SPR Biacore 4000, mAb captured on anti-hFc, 37C
propertyMeasured: Kd (nM)
Give bare numbers, in nM.

Solved entries:
>>> assayvalue("H4H14709P (antibody, human IgG4 S228P, kappa, V domains shown) VH: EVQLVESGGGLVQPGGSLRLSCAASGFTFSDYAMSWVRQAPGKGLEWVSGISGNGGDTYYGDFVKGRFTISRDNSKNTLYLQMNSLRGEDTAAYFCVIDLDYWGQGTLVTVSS VL: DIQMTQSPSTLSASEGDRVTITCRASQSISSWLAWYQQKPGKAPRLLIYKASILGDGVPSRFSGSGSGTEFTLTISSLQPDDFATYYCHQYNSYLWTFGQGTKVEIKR")
17.7
>>> assayvalue("H4H14728P (antibody, human IgG4 S228P, kappa, V domains shown) VH: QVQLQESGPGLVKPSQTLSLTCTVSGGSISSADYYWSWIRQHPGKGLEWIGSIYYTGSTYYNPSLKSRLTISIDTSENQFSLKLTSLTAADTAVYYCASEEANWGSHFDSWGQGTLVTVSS VL: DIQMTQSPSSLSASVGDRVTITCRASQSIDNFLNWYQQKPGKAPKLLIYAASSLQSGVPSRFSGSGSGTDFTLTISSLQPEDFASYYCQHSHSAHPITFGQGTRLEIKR")
20.7
>>> assayvalue("H4H14708P2 (antibody, human IgG4 S228P, kappa, V domains shown) VH: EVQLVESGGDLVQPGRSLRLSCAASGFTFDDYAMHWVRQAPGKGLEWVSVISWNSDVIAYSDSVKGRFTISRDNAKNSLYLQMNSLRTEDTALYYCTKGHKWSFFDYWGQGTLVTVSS VL: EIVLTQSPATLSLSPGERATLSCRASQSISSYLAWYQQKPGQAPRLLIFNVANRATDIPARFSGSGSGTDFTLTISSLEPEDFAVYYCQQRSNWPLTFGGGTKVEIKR")
30.4
>>> assayvalue("H4H14700P2 (antibody, human IgG4 S228P, kappa, V domains shown) VH: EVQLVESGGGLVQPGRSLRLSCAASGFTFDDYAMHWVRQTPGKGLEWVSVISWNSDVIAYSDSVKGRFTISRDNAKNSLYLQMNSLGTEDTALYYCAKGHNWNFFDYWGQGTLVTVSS VL: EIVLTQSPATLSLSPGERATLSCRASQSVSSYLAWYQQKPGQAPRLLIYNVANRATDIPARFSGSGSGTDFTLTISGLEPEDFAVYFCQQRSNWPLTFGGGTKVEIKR")
27.8

Next item in the queue.
*Q* Quickly give me recorded Kd for H4H14731P (antibody, human IgG4 S228P, kappa, V domains shown) VH: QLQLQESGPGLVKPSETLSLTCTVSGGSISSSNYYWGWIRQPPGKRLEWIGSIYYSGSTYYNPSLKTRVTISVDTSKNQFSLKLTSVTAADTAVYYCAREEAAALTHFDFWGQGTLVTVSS VL: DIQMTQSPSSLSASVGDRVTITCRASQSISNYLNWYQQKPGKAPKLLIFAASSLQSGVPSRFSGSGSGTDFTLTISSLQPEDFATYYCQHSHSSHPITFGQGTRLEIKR
*A* 48.2
